tested on: HT29 colon; assay: NCI tumour cell line growth inhibition, 48 h
Hi there, I'd appreciate the recorded GI50 for every entry that follows.

molecule: C=C1C[C@@H]2O[C@H]3[C@H]4[C@@H](CC[C@@](C)(OC(=O)CCC)[C@H]42)[C@@H](C)C(=O)O[C@@]3(C)CC[C@H]1OO
GI50: 16.9 µM
--
molecule: CCOC1Oc2ccc(C)cc2C(=O)/C1=C\Nc1ccc(S(N)(=O)=O)cc1 (centres undefined)
GI50: 15.6 µM
--
molecule: COc1ccc2c(c1)C(=O)c1c-2c(OCCN(C)C)nc2cc(OC)c(OC)cc12
GI50: 1.76 µM

Read the next record carefully.
Req: Provide GI50, system HT29 colon, entry Cc1ccc(C2CC(c3ccc(Nc4ccnc5cc(Cl)ccc45)cc3)=NN2C=O)cc1 (centres undefined)
Resp: 6.09 µM

====

test system: RPMI-8226 leukemia; experiment: NCI tumour cell line growth inhibition, 48 h
propertyName: TGI

Some solved cases for reference:
molecule: OCC(O)C(O)C(O)c1nn(-c2ccc(F)cc2)c2nc3cc(Cl)c(Cl)cc3nc12 (stereo not drawn)
TGI: > 100 µM

molecule: O=C(Cn1c2ccc(Br)cc2c2nc3ccccc3nc21)Nc1ccccc1
TGI: > 100 µM

Req: For the molecule COc1ccc(-c2nc(Nc3ccccc3)sc2Cc2sc(Nc3ccccc3)nc2-c2ccc(OC)cc2)cc1 , give its measured TGI value.
Resp: > 100 µM

====

system: SK-MEL-5 melanoma; test: NCI tumour cell line growth inhibition, 48 h
Hi there, I'd appreciate the recorded TGI for every entry that follows.

Some solved cases for reference:
compound: Cc1nn(C(=O)c2ccncc2)c2c1C(c1ccccc1[N+](=O)[O-])SC(N)=N2 (stereo unspecified)
TGI: > 10 µM
--
compound: CC1(C)C2CCC13C(=O)C1OC3(C2)C2C(=O)c3c(ccc4c3ccc3ccccc34)C(=O)C12 (stereo unspecified)
TGI: > 100 µM
--
compound: C[C@@H]1CCc2ncc(F)cc2[C@H]2CCCN2c2ccn3ncc(c3n2)C(=O)N1
TGI: > 100 µM
--
compound: COc1cc(OC)c2c(=O)c3cccc([N+](=O)[O-])c3n(C)c2c1
TGI: > 100 µM
--
compound: O=CNc1ccccc1OCCOc1ccccc1NC=O
TGI: > 100 µM

Read the next record carefully.
Req: For the compound CN(N=O)c1nc2c(C(N)=O)ncn2s1 , give its measured TGI value.
Resp: > 100 µM

====

tested on: ACHN renal; test: NCI tumour cell line growth inhibition, 48 h
propertyName: TGI

Some solved cases for reference:
compound: O=[N+]([O-])c1cccc2nccc(NCCN3CCOCC3)c12
TGI: > 59.4 µM
--
compound: CC1(C)N=C(N)N=C(N)N1c1cccc(CCc2ccccc2)c1
TGI: > 100 µM
--
compound: Nc1ccccc1C(=O)N=Nc1c(O)[nH]c2ccccc12
TGI: > 100 µM

Look at each compound and report its TGI.
1. CCOP(=O)(O)C(Nc1ccc(N=Nc2ccccc2)cc1)c1cccc(C(Nc2ccc(N=Nc3ccccc3)cc2)P(=O)(O)OCC)c1 (stereo not given)
2. O=C(Cn1c2ccc(Br)cc2c2nc3ccccc3nc21)Nc1ccccc1

Resp:
1: > 100 µM; 2: > 100 µM

====

test system: HCT-116 colon; assay: NCI tumour cell line growth inhibition, 48 h
Hi there, I'd appreciate the recorded TGI for every entry that follows.

Look at each compound and report its TGI.
1. CCOC(=O)c1c(NC(=O)c2ccc(Cl)cc2)sc2c(CN(C)C)c(O)ccc12
2. N#Cc1cc(S(=O)(=O)Nc2nc3cc(Cl)ccc3o2)c(SCc2ccccc2)cc1Cl
3. COc1cccc(C23CCN(C)C(CC(O)C2)C3)c1OC (centres undefined)
4. O=C(/C=C/c1ccccc1O)c1ccccc1Cl
5. O=C(O)c1cc2ccccc2c(N=Nc2ccc(S(=O)(=O)Nc3ncccn3)cc2)c1O

Resp:
1: 40.8 µM; 2: 28.7 µM; 3: > 100 µM; 4: > 100 µM; 5: > 100 µM

====

test system: SF-268 CNS; experiment: NCI tumour cell line growth inhibition, 48 h
Hi there, I'd appreciate the recorded TGI for every entry that follows.

molecule: O=c1[nH]cnc2n[nH]nc12
TGI: > 94.3 µM
--
molecule: O=C1OC(=O)C([Se]c2ccccc2)=C1[Se]c1ccccc1
TGI: > 100 µM
--
molecule: CN1CCc2ccccc2C(C(=O)c2ccc3c(c2)OCO3)C1=O (stereo not drawn)
TGI: > 100 µM
--
molecule: COc1cc(OC)c2c(=O)c3cccc([N+](=O)[O-])c3n(C)c2c1
TGI: > 100 µM
--
molecule: Cc1ccc(S(=O)C(C)C(Cl)c2ccccc2)cc1 (stereo not drawn)
TGI: > 100 µM

Look at each molecule and report its TGI.
1. CC(C)(C)O/N=C/c1cc(NC(=S)c2ccsc2)ccc1Cl
2. CC(=O)OCC1OC(n2c3c(cc(C#N)c2=S)CCCC3)C(OC(C)=O)C(OC(C)=O)C1OC(C)=O (stereo not drawn)
3. Oc1ccccc1C=Nc1ccc(-c2nc3ccccc3s2)cc1

Resp:
["38.2 µM", "> 100 µM", "> 100 µM"]

====

test system: HCC-2998 colon; assay: NCI tumour cell line growth inhibition, 48 h
Hi there, I'd appreciate the recorded TGI for every entry that follows.

Some solved cases for reference:
compound: NC(=O)[N+](=CC(=S)Nc1ccccc1Cl)C(N)=O
TGI: > 100 µM
//
compound: COc1ccccc1C(=O)N(Cc1ccccc1)c1ccc(Cl)c(C(=O)OC(C)C)c1
TGI: > 100 µM

Look at each compound and report its TGI.
1. O=C(O)CSc1n[nH]c(-c2ccco2)n1
2. CC1(C)N=C(N)N=C(N)N1c1cccc(CCc2ccccc2)c1

Resp:
["> 100 µM", "> 38.7 µM"]

====

tested on: IGROV1 ovarian; assay: NCI tumour cell line growth inhibition, 48 h
Hi there, I'd appreciate the recorded TGI for every entry that follows.

Some solved cases for reference:
compound: CCOc1ccc(NC(=O)C(=O)Nn2c(N)nnc2N)cc1
dataValue: > 100 µM
//
compound: CCn1c(-c2nonc2N)nc2cnc(Oc3cccc(NC(=O)c4ccc(N(C)C)cc4)c3)cc21
dataValue: > 25 µM
//
compound: Cc1[nH]c(-c2ccccc2)c2nc(N(C)C)oc(=O)c12
dataValue: > 100 µM
//
compound: Oc1ccccc1C=Nc1ccc(-c2nc3ccccc3s2)cc1
dataValue: > 100 µM
//
compound: CCc1ccc2c(c1)N(CCO)C1=C(C(=O)OC1)C2c1cc(OC)c(OC)c(OC)c1 (configuration not stated)
dataValue: > 50 µM

Look at each compound and report its TGI.
1. COc1cccc(C23CCN(C)C(CC(O)C2)C3)c1OC (configuration not stated)
2. O=C1OC([C@H](O)c2cccnc2)c2ccccc21 (some centres not stated)
3. CO/C(=N\N=C\c1ccc(Cl)c(Cl)c1)c1ccncc1

Resp:
1: > 100 µM; 2: > 10 µM; 3: > 10 µM

Look at each compound and report its TGI.
1. CCOC1Oc2ccc(C)cc2C(=O)/C1=C\Nc1ccc(S(N)(=O)=O)cc1 (configuration not stated)
2. O=c1cccc(Cl)[nH]1
3. COC(=O)[C@@](NC(=O)OCc1ccccc1)([C@H](C)O)C(F)(F)F
4. O=C(O)c1cc2ccccc2c(N=Nc2ccc(S(=O)(=O)Nc3ncccn3)cc2)c1O
5. COc1cccc(-c2nc3sccn3c2-c2ccnc(NCCCNS(=O)(=O)c3ccccc3)c2)c1
6. CC1=NN(c2nc(N)nc(/C(C#N)=C\c3ccc(-c4ccc([N+](=O)[O-])cc4)o3)n2)C(C)(C)C1

Resp:
1. > 50 µM
2. > 100 µM
3. > 100 µM
4. > 100 µM
5. > 100 µM
6. > 100 µM

Look at each compound and report its TGI.
1. COC(=O)c1c(O)ccc2c1c1cc3ccccc3c(O)c1n2CCc1ccc(OC)c(OC)c1
2. O=[N+]([O-])/C(Cl)=C(/C(Cl)=C(Cl)Cl)N1CCOCC1
3. COc1cccc(/C=N\NC(=O)C(C)SC(C)C(=O)N/N=C/c2cccc(OC)c2)c1 (configuration not stated)

Resp:
> 100 µM
3.88 µM
41.7 µM

Look at each compound and report its TGI.
1. COc1ccc2c(c1OC)O/C(=C\c1ncc([N+](=O)[O-])n1C)C2=O
2. Nc1nc(SCC(=O)c2ccc(Br)cc2)c2[nH]cnc2n1
3. O=C1NC(N/N=C\c2ccccc2)=N/C1=C/c1ccccc1

Resp:
["9.46 µM", "50.8 µM", "> 100 µM"]

Look at each compound and report its TGI.
1. CC[C@H]1OC(=O)[C@H](C)[C@@H](O[C@H]2C[C@@](C)(OC)[C@@H](O)[C@H](C)O2)[C@H](C)[C@@H](O[C@@H]2O[C@H](C)C[C@H](N(C)C)[C@H]2O)[C@](C)(OC)C/C(C)=C2/O[C@@]1(C)C=C2C
2. COc1ccc2nc3cc(Cl)ccc3c(NCCCN3CCN(CCCNc4ccc5nnn6c7ccccc7c(=O)c4c56)CC3)c2c1
3. OCCN(CO)CO
4. COC(=O)c1ccc2c(c1)CC1(C2)Cc2ccccc2C1=O (configuration not stated)
5. Cc1c(-c2ccccc2)[nH]c2cn[nH]c(=O)c12
6. O=[N+]([O-])c1cccc2nccc(NCCN3CCOCC3)c12
7. CC(C)[Si]1(C(C)C)OCC2OC(n3ccc(=O)[nH]c3=O)C([Se]c3ccccc3)C2O[Si](C(C)C)(C(C)C)O1 (configuration not stated)

Resp:
["3.03 µM", "> 25 µM", "> 100 µM", "> 100 µM", "> 100 µM", "45.1 µM", "9.49 µM"]

Look at each compound and report its TGI.
1. Cc1ccc2ccc(-c3ccccc3)c3c2c1C(=O)c1ccccc1C3=O
2. Cc1ccc(C2CC(c3ccc(Nc4ccnc5cc(Cl)ccc45)cc3)=NN2C=O)cc1 (configuration not stated)

Resp:
["> 100 µM", "> 100 µM"]

Look at each compound and report its TGI.
1. N#Cc1cc(S(=O)(=O)Nc2nc3cc(Cl)ccc3o2)c(SCc2ccccc2)cc1Cl
2. Cc1nc2ccccc2c(=O)n1/N=C(\N=Nc1cc(Cl)ccc1Cl)c1ccccc1
3. O=C1c2c(Br)sc(Br)c2[C@@H](O)[C@H]1O

Resp:
1: 28.3 µM; 2: > 100 µM; 3: 35.7 µM
